Kindly supply the reported log10(kon) values for the records listed here.
# target_or_test_system: T1, AAV9
# T1 construct: also called adeno-associated virus serotype 9
# procedure_summary: SPR, AAV on CM5 chip;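 also: surface plasmon resonance with AAV amine-coupled to the chip as ligand, nanobodies injected as analyte over a concentration series, rate constants and affinity fitted from binding curves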
Scale type: logarithmic (base 10). Underlying kon unit: M⁻¹ s⁻¹.

Task item: Give its log10(kon) value. Item: A4-033 (VHH) VHH: VQLQESGGGLVQPGGSLRLSCVASGSSFSINTMGWYRRAPGKQRELVATVTRDGSTNYANSVKGRFTISRDNAKNTVYLQMNSLRPEDTAVYYCHVDEVRQSSWTTSNLWGQGTQVTVSS
Reply: 3.36

Task item: If you can, please state the reported log10(kon) value of A4-022 (VHH) VHH: VQLQESGGGLVQPGGSLRLSCAASGSGFSINTMGWYRQAPGKQRELVATVTRDGSTNYADFVKGRFTISRDNAKNTVYLQMNSLRPEDTAVYYCHLDEVRESSWTTSNLWGQGTQVTVSS .
Reply: 3.55

Task item: Item A4-013 (VHH) VHH: VQLQESGGGLVQPGGSLRLSCAASGSRFSINSMGWYRQAPGKQRELVATVTRGGNTNYADSVKGRFTISRDNAKNTVYLQMNSLRPEDTAVYYCHVDEVRESSWTTSNLWGQGTQVTVSS has what recorded log10(kon)?
Reply: 4.90

Task item: Returns the measured log10(kon) for the input binder. Input: A4-042 (VHH) VHH: VQLQESGGGLVQPGGSLRLSCAASGRAFSINTMGWYRQAPGKQRELVATVTRDGSTNYADSVKGRFTISRDNAKNTVYLQMNSLRPEDTAVYYCHVDEVRQSSWTTSNLWGQGTQVTVSS
Reply: 3.67

Task item: For A4-010 (VHH) VHH: VQLQESGGGLVQAGGSLRLSCAASGSIFSINSMGWYRQAPGKQRELVATVTRGGNTNYADSVKGRFTISRDNAKNTVYLQMNSLRPEDTAVYYCHVDEVRESSWTTSNLWGQGTQVTVSS , what is its reported log10(kon)?
Reply: 4.94

Task item: I have this binder here, A4-036 (VHH) VHH: VQLQESGGGLAQAGGSLRLSCAASGRGFSINTMGWYRQAPGKQRELVAAVTRGGTTNYADSVKGRFTISRDNAKNTVYLQMNSLRPEDTAVYYCHVDEVRQSSWTTSNLWGQGTQVTVSS , and I need its recorded log10(kon).
Reply: 3.76

Task item: Which log10(kon) value belongs to A4-012 (VHH) VHH: VQLQESGGGAVQAGGSLRLSCAASGSIFSINSMGWYRQAPGKQRELVATVTRGGNTNYAGSVKGRFTISRDNAKNTVYLQMNSLRPEDTAVYYCHVDEVRESSWTTSNLWGQGTQVTVSS ?
Reply: 5.01

Task item: GET /values?readout=log10(kon)&item= A4-032 (VHH) VHH: VQLQESGGGLVQPGGSLRLSCVASGSSFSINTMGWYRQAPGKQRELVATVTRDGSTNYANSVKGRFTISRDNAKNTVYLQMNSLRPEDTAVYYCHVDEVRQSSWTTSNLWGQGTQVTVSS
Reply: 4.82

Task item: Query (binder): A4-031 (VHH) VHH: VQLQESGGGLVQPGGSLRLSCAASGSGFSINTMGWYRQAPGKQRELVATVTSAGSTNYAGSVKGRFTISRDNAKNTVYLQMNSLRPEDTAVYYCHVDEIRQSSWTTSNLWGQGTQVTVSS ; field requested: log10(kon)
Reply: 3.57

Task item: Item under review: A4-007 (VHH) VHH: VQLQESGGGLVQAGGSLRLSCAASGRHFSINTMGWYRQAPGKQRELVAAVTRGGSTNYAGSVKGRFTISRDNAKNTVYLQMNSLRPEDTAVYYCHIDEVRQSSWTTSNIWGQGTQVTVSS . Reported log10(kon)?
Reply: 5.14

Task item: Give its log10(kon) value. Item: A4-015 (VHH) VHH: VQLQESGGGLVQPGGSLRLSCAASGSIFSINLMGWYRQAAGKQRELVATITPGGNTNYAGSVKGRFTISRDNAKNTVYLQMNSLRPEDTAVYYCHVDEVRQSSWTTSNLWGQGTQVTVSS
Reply: 4.70

Task item: State the recorded log10(kon) for this entry: A4-034 (VHH) VHH: VQLQESGGGLVQPGGSLRLSCAASGRGFSINTMGWYRQAPGKQRELVAAVTRGGTTNYADSVKGRFTISRDNAKNTVYLQMNSLRPEDTAVYYCHVDEVRQSSWTTSNLWGQGTQVTVSS
Reply: 5.28

Task item: What value of measured log10(kon) is listed for A4-035 (VHH) VHH: VQLQESGGGLVQAGGSLRLSCAASGRGFSINTMGWYRQAPGKQRELVAAVTRGGTTNYADSVKGRFTISRDNAKNTVYLQMNSLRPEDTAVYYCHVDEVRQSSWTTSNLWGQGTQVTVSS ?
Reply: 4.76

Task item: Query: log10(kon); subject: A4-027 (VHH) VHH: VQLQESGGGLVQPGGSLRLSCAASGSNFSINTMGWYRQAPGKQRELVAALTRGGSTNYADSVKGRFTISRDNAKNTVYLQMNSLRPEDTAVYYCHVDEVRESSWTTSNLWGQGTQVTVSS
Reply: 3.61

Task item: Fill blank: measured log10(kon) of the binder A4-006 (VHH) VHH: VQLQESGGGLVQPGGSLRLSCAASGRHFSINTMGWYRQAPGKQRELVAAVTRGGSTNYAGSVKGRFTISRDNAKNTVYLQMNSLRPEDTAVYYCHIDEVRQSSWTTSNIWGQGTQVTVSS is ____.
Reply: 5.10
